# ASSAY_SYSTEM: GPR37 (Homo sapiens)
# Sequence (O15354 27-613): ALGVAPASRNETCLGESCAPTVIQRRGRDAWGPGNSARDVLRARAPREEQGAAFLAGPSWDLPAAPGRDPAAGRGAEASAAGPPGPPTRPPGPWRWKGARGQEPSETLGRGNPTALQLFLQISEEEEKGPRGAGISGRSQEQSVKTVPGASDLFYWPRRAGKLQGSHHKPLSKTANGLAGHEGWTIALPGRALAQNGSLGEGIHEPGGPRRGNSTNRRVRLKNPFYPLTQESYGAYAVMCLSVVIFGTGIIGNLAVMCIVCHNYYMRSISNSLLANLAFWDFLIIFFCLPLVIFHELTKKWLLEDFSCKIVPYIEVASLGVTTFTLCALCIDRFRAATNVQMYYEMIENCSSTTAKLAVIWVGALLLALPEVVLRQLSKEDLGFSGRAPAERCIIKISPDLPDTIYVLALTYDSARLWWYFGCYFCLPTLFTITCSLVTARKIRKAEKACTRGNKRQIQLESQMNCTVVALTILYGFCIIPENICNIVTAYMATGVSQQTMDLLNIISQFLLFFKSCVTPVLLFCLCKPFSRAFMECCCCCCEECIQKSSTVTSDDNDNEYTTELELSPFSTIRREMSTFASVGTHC
# PROCEDURE_DETAILS: Ca2+ imaging (Fura-2AM) in HEK293 cells transfected with human GPR37 cDNA
# SETTINGS: GPR37-expressing HEK293 cells, dose response; read-out: EC50 of iCa2+ increase
# Protocol: HEK cell culture and transfection. HEK293 flip-in cell line was purchased from Duke Cell Culture Facility. Cells were cultured in high glucose (4.5 g/L) Dulbecco's Modified Eagle's Medium containing 10% (v/v) fetal bovine serum (Gibco). […] Calcium imaging. […] The ratio of fluorescence intensity of the two wavelengths in each experiment was analyzed using MetaFluor (Molecular Devices). […]
ENDPOINT_LABEL: EC50 (µM)
Give bare numbers, in µM.

Return reported EC50. Input molecule: CC/C=C\C[C@H](O)\C=C/C=C/C=C/[C@H](O)C/C=C\C/C=C\CCC(=O)O [NPD1, neuroprotectin D1] 0.026
